What clearance was measured for each of the following?
# MEASUREMENT_DESCRIPTION: Clearance in rat at 1.05 umol/kg, iv
# Type: ADME, organism-based
# ASSAY_CONDITIONS: in vivo
Numbers only, in mL/min/kg.

>  <SMILES_INPUT>
O=C([O-])C1CCN(c2cc3cccnc3c(-c3cccc(OC(F)(F)F)c3)n2)CC1.[Na+]

>  <UNIT_TEXT>
mL/min/kg

>  <clearance>
0.98

$$$$
>  <SMILES_INPUT>
O=C([O-])[C@H]1CC[C@H](c2cc3cccnc3c(-c3cccc(OC(F)(F)F)c3)n2)CC1.[K+]

>  <UNIT_TEXT>
mL/min/kg

>  <clearance>
0.65

$$$$

Would you kindly look at the next entry?
# input Can you share its clearance? I mean this compound: N#Cc1cccc(-c2nc(N3CCC(C(=O)O)CC3)cc3cccnc23)c1
# output 1.16

----------
# MEASUREMENT_DESCRIPTION: Clearance in rat at 4.2 umol/kg, iv
# Type: ADME, organism-based
# ASSAY_CONDITIONS: in vivo
MEASUREMENT_KIND: clearance (mL/min/kg)
Give bare numbers, in mL/min/kg.

# input Can you share its clearance? I mean this molecule: N#Cc1cccc(-c2nc([C@H]3CC[C@H](C(=O)[O-])CC3)cc3cccnc23)c1.[K+]
# output 0.22

----------
# MEASUREMENT_DESCRIPTION: Tmax in rat at 2.1 umol/kg, po
# Type: ADME, organism-based
# ASSAY_CONDITIONS: in vivo
What Tmax was measured for each of the following?

>  <SMILES_INPUT>
N#Cc1cccc(-c2nc(N3CCC(C(=O)O)CC3)cc3cccnc23)c1

>  <Tmax>
2.15 h

$$$$
>  <SMILES_INPUT>
O=C([O-])[C@H]1CC[C@H](c2cc3cccnc3c(-c3cccc(OC(F)(F)F)c3)n2)CC1.[K+]

>  <Tmax>
7.42 h

$$$$

Would you kindly look at the next entry?
# input Can you share its Tmax? I mean this compound: O=C([O-])C1CCN(c2cc3cccnc3c(-c3cccc(OC(F)(F)F)c3)n2)CC1.[Na+]
# output 2.88 h

----------
# SYSTEM_NAME: Phosphodiesterase 4 (Homo sapiens, UniProt P27815+Q08499+Q07343+Q08493)
# MEASUREMENT_DESCRIPTION: Inhibition of PDE4 in human PBMC assessed as inhibition of LPS-induced TNFalpha production incubated for 10 mins prior to LPS-challenge measured after 20 hrs by sandwich ELISA
MEASUREMENT_KIND: IC50 (nM)
Give bare numbers, in nM.

Example entries begin here.
>  <SMILES_INPUT>
N#Cc1cccc(-c2nc([C@H]3CC[C@H](C(=O)O)CC3)cc3cccnc23)c1

>  <UNIT_TEXT>
nM

>  <MEASURED>
53

$$$$
>  <SMILES_INPUT>
COc1cccc(-c2nc([C@H]3CC[C@H](C(=O)O)CC3)cc3cccnc23)c1

>  <UNIT_TEXT>
nM

>  <MEASURED>
151

$$$$
>  <SMILES_INPUT>
O=C(O)[C@H]1CC[C@H](c2cc3cccnc3c(-c3cccc(OC(F)(F)F)c3)n2)CC1

>  <UNIT_TEXT>
nM

>  <MEASURED>
52

$$$$

Would you mind giving IC50 for every compound in the list below?
1. O=C(O)C1CCN(c2cc3cccnc3c(-c3cccc(Cl)c3)n2)CC1
2. N#Cc1cccc(-c2nc(N3CCC(C(=O)O)CC3)cc3cccnc23)c1
3. O=C(O)[C@H]1CC[C@H](c2cc3cccnc3c(-c3cccc(F)c3)n2)CC1
4. O=C(O)c1ccc(-c2cc3cccnc3c(-c3ccc4nonc4c3)n2)cc1
5. CSc1cccc(-c2nc([C@H]3CC[C@H](C(=O)O)CC3)cc3cccnc23)c1
6. O=C(O)C1CCN(c2cc3cccnc3c(-c3cccc(F)c3)n2)CC1
7. COc1cccc(-c2nc(N3CCC(C(=O)O)CC3)cc3cccnc23)c1

# output
1: 541; 2: 851; 3: 126; 4: 67.6; 5: 19; 6: 769; 7: 1930
